Recorded human B cell proliferation, with protein G crosslinking, % Max Activity for the following binders
Biological target: human CD40 on cells (human, UniProt P25942 21-277)
Sequence (P25942 21-277 limits assumed): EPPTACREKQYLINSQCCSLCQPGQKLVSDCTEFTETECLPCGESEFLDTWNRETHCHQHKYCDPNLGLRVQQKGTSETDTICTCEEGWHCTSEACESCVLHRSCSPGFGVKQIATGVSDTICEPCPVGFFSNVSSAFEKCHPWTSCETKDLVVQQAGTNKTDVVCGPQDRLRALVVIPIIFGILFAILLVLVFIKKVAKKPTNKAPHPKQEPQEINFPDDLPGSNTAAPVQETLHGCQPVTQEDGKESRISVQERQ
Experiment: cell-based or functional assay
# do not omit the unit; it follows the number

A selection of reference data follows.
binder	result
39C2 (antibody, IgG4, V domains shown, also called 4887-1) VH: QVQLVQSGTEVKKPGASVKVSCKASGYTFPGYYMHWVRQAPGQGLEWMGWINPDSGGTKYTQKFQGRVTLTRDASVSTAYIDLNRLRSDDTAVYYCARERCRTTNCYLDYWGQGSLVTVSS VL: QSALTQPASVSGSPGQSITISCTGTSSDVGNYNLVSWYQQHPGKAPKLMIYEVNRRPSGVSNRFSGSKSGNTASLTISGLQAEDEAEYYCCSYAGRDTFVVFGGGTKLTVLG	76.6%
29H10 (antibody, V domains shown, also called 4877-1) VH: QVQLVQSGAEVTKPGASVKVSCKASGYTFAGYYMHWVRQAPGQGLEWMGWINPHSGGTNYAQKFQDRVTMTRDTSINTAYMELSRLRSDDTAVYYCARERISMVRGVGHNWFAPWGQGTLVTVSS VL: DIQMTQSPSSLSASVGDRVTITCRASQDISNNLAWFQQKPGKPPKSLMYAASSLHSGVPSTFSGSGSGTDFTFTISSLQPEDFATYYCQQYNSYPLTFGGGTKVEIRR	65.9%
35F11 (antibody, IgG4, V domains shown, also called 4868-1) VH: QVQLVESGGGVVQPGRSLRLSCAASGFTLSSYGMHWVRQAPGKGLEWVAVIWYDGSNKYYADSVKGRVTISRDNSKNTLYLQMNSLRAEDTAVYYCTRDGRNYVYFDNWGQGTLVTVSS VL: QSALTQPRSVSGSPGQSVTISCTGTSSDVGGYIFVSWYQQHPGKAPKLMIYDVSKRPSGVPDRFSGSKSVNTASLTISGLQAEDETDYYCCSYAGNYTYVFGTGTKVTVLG	120%
37A6 (antibody, IgG4, V domains shown, also called 4865-1) VH: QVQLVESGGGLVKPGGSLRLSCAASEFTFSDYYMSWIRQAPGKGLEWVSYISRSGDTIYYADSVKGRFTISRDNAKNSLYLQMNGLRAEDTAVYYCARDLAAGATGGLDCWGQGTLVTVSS VL: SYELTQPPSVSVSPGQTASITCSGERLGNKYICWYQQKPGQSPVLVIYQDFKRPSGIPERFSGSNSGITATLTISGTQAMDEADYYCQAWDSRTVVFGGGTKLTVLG	80.9%
30A12 (antibody, IgG4, V domains shown, also called 4878-1) VH: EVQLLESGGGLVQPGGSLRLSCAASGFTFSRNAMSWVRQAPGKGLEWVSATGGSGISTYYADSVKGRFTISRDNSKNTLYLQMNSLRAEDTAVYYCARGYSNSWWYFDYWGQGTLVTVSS VL: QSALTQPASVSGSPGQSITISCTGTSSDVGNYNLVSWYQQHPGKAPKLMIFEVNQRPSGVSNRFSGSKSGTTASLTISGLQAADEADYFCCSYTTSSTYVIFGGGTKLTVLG	89.1%

Kindly consider the entry below.
[ask] Requested field: human B cell proliferation, with protein G crosslinking, % Max Activity. Item: 33H9 (antibody, IgG4, V domains shown, also called 4897-1) VH: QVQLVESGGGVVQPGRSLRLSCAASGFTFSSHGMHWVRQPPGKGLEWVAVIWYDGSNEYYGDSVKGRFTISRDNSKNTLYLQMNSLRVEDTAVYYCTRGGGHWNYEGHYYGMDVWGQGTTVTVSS VL: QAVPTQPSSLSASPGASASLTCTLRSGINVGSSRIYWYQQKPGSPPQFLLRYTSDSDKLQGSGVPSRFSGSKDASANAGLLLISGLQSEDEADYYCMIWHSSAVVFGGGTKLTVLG
[reply] 88.9%
